experiment.summary: HepG2 cells viability qHTS for Zika virus inhibitors (AID 1347168)
test.settings: Zika counter-screen; series mostly up to 45.9 µM
Results filed as inconclusive are left out. Active and inactive are the calls of the source. Calls follow the shape of the dose curve; as a rule, active = well fitted cell-killing curve with a large enough effect; inconclusive = small, poorly fitted or top-dose-only effect; inactive = flat fitted curve, though single readings scatter.
Hello, when you answer, please use one of the following outcomes: active, inactive

Answered examples (5):
| molecule | class.label |
| --- | --- |
| C[C@H]1O[C@@H](O[C@H]2[C@@H](O)C[C@H](O[C@H]3[C@@H](O)C[C@H](O[C@H]4CC[C@]5(C)C6CC[C@]7(C)[C@@H](C8=CC(=O)OC8)CC[C@]7(O)C6CC[C@@H]5C4)O[C@@H]3C)O[C@@H]2C)C[C@H](O)[C@@H]1O (some centres undefined) | inactive |
| CN1CC[C@@]23CCCCC2C1Cc1ccc(O)cc13 (some centres undefined) | inactive |
| C[C@H]1[C@H]2Cc3ccc(O)cc3[C@]1(C)CCN2CCc1ccccc1 | inactive |
| Cc1ccc2c(c1)[C@]13CCCC[C@@H]1[C@H](C2)N(C)CC3 | inactive |
| CNc1ccc2oc(C[C@@H]3OC4(CC[C@@H]3C)O[C@H]([C@@H](C)C(=O)c3ccc[nH]3)[C@H](C)C[C@H]4C)nc2c1C(=O)O (some centres undefined) | active |

// query Write down the call the test reported for this molecule. Item: Clc1cncc(N2CCNCC2)n1
// result inactive

// query What did this assay record as the result for CC(C)OC(=O)Nc1ccccc1 ?
// result inactive

// query Query: recorded result category for CN1CC[C@@]23CCCC[C@@H]2[C@@H]1Cc1ccc(O)cc13 in this test
// result inactive

// query For this molecule, state the assay outcome: COC(=O)c1cc2c(cn1)[nH]c1ccccc12
// result inactive

###

experiment.summary: qHTS for Inhibitors of the Functional Ribonucleoprotein Complex (vRNP) of Lassa (LASV) Arenavirus: LASV Primary Screen - GLuc reporter signal (AID 1347082); also: nearly all actives have a fitted effect of over 60% in size
test.settings: LASV minigenome vRNP, Gaussia luciferase reporter; series mostly up to 57.5 µM
Records with an inconclusive call do not appear. Activity calls are given as the source filed them. Calls follow the shape of the full dose curve; tested in HEK293 reporter line.
Response enum: active, inactive

| molecule | class.label |
| --- | --- |
| O=C(Nc1ccc(Oc2ccnc3[nH]ccc23)c(F)c1)c1cccn(-c2ccc(F)cc2)c1=O | inactive |
| Cc1ccc(-c2ccccc2)cc1 | inactive |

Now let's try a different one.
// query Can you look up the reported call for C=C[C@@]1(C)CC(=O)[C@]2(O)[C@@]3(C)[C@@H](O)CCC(C)(C)[C@@H]3[C@H](OC(C)=O)[C@H](O)[C@@]2(C)O1 for me?
// result inactive

###

Test system: PC15
experiment.summary: qHTS profiling for inhibitors of Plasmodium falciparum proliferation (AID 504749); also: nearly all actives have a fitted effect of over 60% in size
test.settings: P. falciparum in erythrocytes, SYBR Green DNA, 72 h; series mostly up to 28.7 µM
Results filed as inconclusive are left out. Active and inactive are the calls of the source. Calls follow the shape of the dose curve; as a rule, active = well fitted inhibition curve with a large enough effect; inconclusive = small, poorly fitted or top-dose-only effect; inactive = flat fitted curve, though single readings scatter.
Write down one outcome, taken from YES (active), NO (inactive)

| compound | class.label |
| --- | --- |
| C[N+](C)(C)CC(=O)[O-] | NO |
| CC(C)[C@@]1(NC(=O)[C@H]2CC3c4cccc5[nH]cc(c45)C[C@H]3N(C)C2)O[C@@]2(O)C3CCCN3C(=O)[C@@H](Cc3ccccc3)N2C1=O (some centres undefined) | YES |
| CCN(CC)CCO[C@H]1CC[C@@]2(C)C(=CC[C@@H]3[C@H]2CC[C@]2(C)C(=O)CC[C@H]32)C1 | NO |

// query Dear all, I need the recorded test outcome for CCCCCCCCCC[N+](C)(C)CCCCCCCCCC , thank you.
// result YES

###

Tested on: SKOV3
experiment.summary: Primary qHTS to identify gynecologic anti-cancer compounds using libraries of approved drugs and bioactive compounds (AID 1345084); also: nearly all actives have a fitted effect of over 55% in size
test.settings: Gynecologic cancer cell panel viability, ATPlite luminescence, 48 h; series mostly up to 57.5 µM
Records with an inconclusive call do not appear. Calls of active or inactive are those of the source. Calls come from the whole dose curve; as a rule, active = well fitted cell-killing curve with a large enough effect; inconclusive = small, poorly fitted or top-dose-only effect, or effect the other way; inactive = flat fitted curve, though single readings scatter. Where a SMILES comes first, the peptide text is derived from it. [ ]: non-standard residue; d: D form. The star is where a group is joined. Dolaproine = CO[C@@H]([C@@H]1CCCN1)[C@@H](C)C(=O)O; Dil = CC[C@H](C)[C@H](NC)[C@@H](CC(=O)O)OC; Doe = c1ccc(C[C@H](N*)c2nccs2)cc1; Aib = CC(C)(N)C(=O)O
In this exercise, the only acceptable responses are 1.0 (active), 0.0 (inactive)

| molecule | class.label |
| --- | --- |
| CCN1C[C@]2(COC)CC[C@H](O)[C@@]34C5C[C@@H]6[C@@H](OC)C[C@@](OC(C)=O)(C5[C@@H]6OC(C)=O)[C@H]([C@H](OC)C23)[C@@H]14 (stereo partly drawn) | 0.0 |
| C=C1CC[C@H]2[C@@H](/C=C(\C)C(=O)[C@@]3(OC(C)=O)C[C@H](C)[C@H](OC(=O)c4ccccc4)[C@@H]3[C@H]1OC(C)=O)C2(C)C | 0.0 |
| COc1ccc2c3c4n(c2c1)[C@@H](C=C(C)C)OOC(C)(C)C[C@@H]4N1C(=O)[C@@H]2CCCN2C(=O)[C@]1(O)[C@H]3OCC=C(C)C | 0.0 |
| C[C@@H]1Cc2c(Cl)cc(C(=O)N[C@@H](Cc3ccccc3)C(=O)O)c(O)c2C(=O)O1 | 0.0 |
| COC1CC(O[C@H]2CC[C@]3(C)C4CC[C@]5(C)[C@@H](C6=CC(=O)OC6)[C@@H](OC(C)=O)C[C@]5(O)C4CC[C@@H]3C2)OC(C)C1O (stereo partly drawn) | 1.0 |

// query Assay result, entry C[C@@H]1CCC/C=C/[C@H]2C[C@@H](O)C[C@@H]2[C@@H](O)/C=C/C(=O)O1 — outcome?
// result 1.0

// query Hi, sorry to bother you, what did the test record for CC[C@H](C)[C@@H]([C@@H](CC(=O)N1CCC[C@H]1[C@H](OC)[C@@H](C)C(=O)N[C@@H](Cc1ccccc1)c1nccs1)OC)N(C)C(=O)[C@@H](NC(=O)C(C)(C)N)C(C)C (H-[Aib]V[Dil][Dolaproine]-Doe) ?
// result 0.0

// query Which outcome was assigned to CC(O)(c1ccccc1)C(Cc1ccc(Cl)cc1)n1cncn1 (stereo not drawn) in this test?
// result 0.0

// query Answer briefly: the call reported for CN1CCc2cc3c(cc2[C@H]1[C@@H]1OC(=O)c2c1ccc1c2OCO1)OCO3 in this assay.
// result 0.0

###

System: P93_24
experiment.summary: qHTS profiling for inhibitors of Plasmodium falciparum proliferation (AID 504749); also: nearly all actives have a fitted effect of over 60% in size; also: potency is read from the fitted curve at half-maximal effect
test.settings: P. falciparum in erythrocytes, SYBR Green DNA, 72 h; series mostly up to 28.7 µM
Records with an inconclusive call do not appear. Calls of active or inactive are those of the source. Calls come from the whole dose curve; as a rule, active = well fitted inhibition curve with a large enough effect; inconclusive = small, poorly fitted or top-dose-only effect; inactive = flat fitted curve, though single readings scatter.
endpoint.name: Potency

| molecule | obs.value |
| --- | --- |
| CCN1C[C@]2(COC)[C@H](O)C[C@H](OC)[C@]34C1C([C@H](OC)[C@H]23)[C@]1(OC(C)=O)C2[C@@H](OC(=O)c3ccccc3)C(O)(C[C@H]24)[C@@H](OC)[C@@H]1O | inactive |
| CCN(CC)CCO[C@H]1CC[C@@]2(C)C(=CC[C@@H]3[C@H]2CC[C@]2(C)C(=O)CC[C@H]32)C1 | inactive |
| CC(C)[C@@]1(NC(=O)[C@H]2CC3c4cccc5[nH]cc(c45)C[C@H]3N(C)C2)O[C@@]2(O)C3CCCN3C(=O)[C@@H](Cc3ccccc3)N2C1=O (some centres undefined) | 0.891 µM (active) |
| Oc1cc[c]([Hg][Cl])cc1 | 11.2 µM (active) |

###

experiment.summary: qHTS for Inhibitors of the Functional Ribonucleoprotein Complex (vRNP) of Lassa (LASV) Arenavirus: LASV Primary Screen - GLuc reporter signal (AID 1347082); also: nearly all actives have a fitted effect of over 60% in size
test.settings: LASV minigenome vRNP, Gaussia luciferase reporter; series mostly up to 57.5 µM
Results filed as inconclusive are left out. The source made the active and inactive calls. The call rests on the fitted dose curve; tested in HEK293 reporter line.
Form entry, call: pick from 1 (yes) (active), 0 (no) (inactive)

Recorded results for 3 molecules are shown here.
| molecule | class.label |
| --- | --- |
| O=C(O)CCCCC(CCSCc1ccccc1)SCc1ccccc1 (stereo not given) | 0 (no) |
| C=CC(C)=C[C@@]1(C)SC(=O)C(C)=C1O | 0 (no) |
| O=C(O)c1cc(N(Cc2ccccc2O)Cc2ccccc2O)ccc1O | 0 (no) |

// query Check the results log: what was the call for Cc1ccc([C@@H]2O[C@H](CO)[C@@H](O)[C@H](O)[C@@H]2O)cc1Cc1ccc(-c2ccc(F)cc2)s1 ?
// result 0 (no)

// query What did this assay record as the result for Cc1cc(N2CCOCC2)cc2[nH]c(-c3c(NC[C@@H](O)c4cccc(Cl)c4)cc[nH]c3=O)nc12 ?
// result 1 (yes)

###

Test system: CRL-7250
experiment.summary: Cytotoxic Profiling of Annotated Libraries Using Quantitative High-Throughput Screening (AID 1296008)
test.settings: Five cell lines viability, CellTiter-Glo ATP luminescence, 48-72 h; active compounds read low
Inconclusive results are not listed.
max response by entry:
The reply should contain only the number, in %.

// worked examples, max response included
| compound | measurement.units | max response |
| --- | --- | --- |
| c1ccc([C@@H]2C[C@H]2NC2CCNCC2)cc1 | % | -8.87 |
| CC(=O)NCCCOc1ccc(C(=O)N2CCC(N3C(=O)CCc4ccccc43)CC2)cc1 | % | 0.176 |
| CC1CCCC(O)CC(=O)Cc2cc(O)cc(O)c2C(=O)O1 (stereo not given) | % | -9.43 |

// query Which max response is listed for C[C@@H]1CCC2[C@@H](C)C(=O)OC3O[C@@]4(C)CCC1[C@]32OO4 (stereo not given in full) ?
// result -1.83

// query What value of measured max response is listed for Cc1cccc(NC(=O)NC2N=C(c3ccccc3)c3ccccc3N(CC(=O)c3ccccc3C)C2=O)c1 (stereo not given) ?
// result 0.833

The origin of these recorded values is PubChem BioAssay (NCATS).
